target: human MRGPRX4-83L (Homo sapiens); construct: host or cells: CHO β-arrestin cells; assay: Calcium assay (human MRGPRX4 83L), recombinant astrocytes; type: cell-based; details: Table 4; efficacy based on maximal effect of 1 μM B-16 (set as 100%); read-out: Emax
Sequence (Q96LA9 whole entry): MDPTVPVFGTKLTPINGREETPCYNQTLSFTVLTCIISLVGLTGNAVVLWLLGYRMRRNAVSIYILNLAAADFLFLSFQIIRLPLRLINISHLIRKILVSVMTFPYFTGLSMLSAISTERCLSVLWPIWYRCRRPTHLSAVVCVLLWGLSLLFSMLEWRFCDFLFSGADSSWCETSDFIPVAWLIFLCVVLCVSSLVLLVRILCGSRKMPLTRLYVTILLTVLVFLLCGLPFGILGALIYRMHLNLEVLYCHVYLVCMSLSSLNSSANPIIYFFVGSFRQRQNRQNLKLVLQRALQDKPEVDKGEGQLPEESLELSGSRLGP
Test Readout: Emax (%)

1: C#CCn1c(=O)c2nc(CCc3ccc(Br)cc3)[nH]c2n(CCCCP(=O)(O)O)c1=O
2: C#CCn1c(=O)c2c(nc(CCc3ccc(Br)cc3)n2C)n(CCCCP(=O)(O)O)c1=O
Which value of Emax is numerically greater: that of 1 or that of 2 ? Please reply using the label of the selected record.
1

###

target: MRGPRX4-83S (Homo sapiens, UniProt Q96LA9, L83S); experiment: β-arrestin assay (CHO β-arrestin human MRGPRX4-83S); type: cell-based; parameters: host or cells: CHO β-arrestin cells; settings: Table 3; efficacy based on 100 nM B-16 (set as 100%); read-out: Emax
Sequence (Q96LA9 whole entry L83S): as the sequence (Q96LA9 whole entry) above, with L83S counted along it
Test Readout: Emax (%)

INSERT INTO measurements (compound, tested_system, display_unit, data_value) VALUES
  ('C#CCn1c(=O)c2c(nc(CCc3ccccc3C)n2C(C)C)n(CCCCP(=O)(O)O)c1=O [B-48]', 'MRGPRX4-83S (Homo sapiens, UniProt Q96LA9, L83S)', '%', 102),
  ('C#CCn1c(=O)c2[nH]c(CCc3ccc(-c4ccccc4)cc3)nc2n(CCCCP(=O)(O)O)c1=O [B-27]', 'MRGPRX4-83S (Homo sapiens, UniProt Q96LA9, L83S)', '%', 68),
  ('C#CCn1c(=O)c2c(nc(CCc3ccc(I)cc3)n2CC2CCCC2)n(CCCCP(=O)(O)O)c1=O [B-39]', 'MRGPRX4-83S (Homo sapiens, UniProt Q96LA9, L83S)', '%', 76),
  ('C#CCn1c(=O)c2c(nc(CCc3ccccc3C)n2CC)n(CCCCP(=O)(O)O)c1=O [B-32]', 'MRGPRX4-83S (Homo sapiens, UniProt Q96LA9, L83S)', '%', 97),
  ('C#CCn1c(=O)c2c(nc(CCc3ccc(C(F)(F)F)cc3)n2CC2CCCC2)n(CCCCP(=O)(O)O)c1=O [B-40]', 'MRGPRX4-83S (Homo sapiens, UniProt Q96LA9, L83S)', '%', 77),
  ('C#CCn1c(=O)c2c(nc(CCc3ccccc3F)n2C)n(CCCCP(=O)(O)O)c1=O [B-28]', 'MRGPRX4-83S (Homo sapiens, UniProt Q96LA9, L83S)', '%', 78),
  ('C#CCn1c(=O)c2c(nc(CCc3ccccc3Br)n2C(C)C)n(CCCCP(=O)(O)O)c1=O [B-46]', 'MRGPRX4-83S (Homo sapiens, UniProt Q96LA9, L83S)', '%', 91),
  ('C#CCn1c(=O)c2c(nc(CCc3ccccc3Br)n2CC2CCCCC2)n(CCCCP(=O)(O)O)c1=O [B-36]', 'MRGPRX4-83S (Homo sapiens, UniProt Q96LA9, L83S)', '%', 84);

###

target: human MRGPRX4-83L (Homo sapiens); construct: host or cells: CHO β-arrestin cells; test: Calcium assay (human MRGPRX4 83L), recombinant astrocytes; format: cell-based; details: Table 4; efficacy based on maximal effect of 1 μM B-16 (set as 100%); read-out: Emax
Test Readout: Emax (%)

INSERT INTO results (chemical_string, data_value) VALUES
  ('C#CCn1c(=O)c2c(nc(CCc3ccccc3Br)n2CC)n(CCCCCCP(=O)(O)O)c1=O', 98),
  ('C#CCn1c(=O)c2c(nc(CCc3ccccc3Br)n2CC2CCCCC2)n(CCCCP(=O)(O)O)c1=O', 109),
  ('C#CCn1c(=O)c2c(nc(CCc3ccccc3Br)n2CC2CCCC2)n(CCCCP(=O)(O)O)c1=O', 84),
  ('C#CCn1c(=O)c2c(nc(CCc3ccccc3Br)n2CCN)n(CCCCP(=O)(O)O)c1=O', 102);
